From: the supplement of paper PMC10126150

- Test system: ATP;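 also: ATP exposure 15 min at 22 °C before imaging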
- Measurement Protocol: switch fluorescence ratio, 500 uM ATP over buffer (Cy3 cluster intensity, sum of 5 cycles each) (fold (ratio)); higher = stronger signal-on switching upon ATP binding; sequences stand for … in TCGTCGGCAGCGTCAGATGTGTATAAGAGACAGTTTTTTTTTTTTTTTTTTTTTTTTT…TC
- Assay Conditions: aptamer strand: ATP DNA aptamer (quencher-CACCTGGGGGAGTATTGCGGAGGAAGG + anchor), 100 nM annealed; ATP concentration: 500 uM
Measurement Kind: switch fluorescence ratio
The reply should be a number, written without any unit.

>>> reported("AATTGCCGTG")
0.999

Prompt: Need switch fluorescence ratio of "ATTGACGTAC" , thanks.
Completion: 1.76

Prompt: Need switch fluorescence ratio of "TGGGCAAAGT" , thanks.
Completion: 0.986

Prompt: Need switch fluorescence ratio of "CTAGGATCTA" , thanks.
Completion: 0.996
